- TARGET_DESC: CDK7/cyclinH/MAT1 trimeric complex (Homo sapiens (Human), UniProt P50613)
- Sequence (P50613 whole entry): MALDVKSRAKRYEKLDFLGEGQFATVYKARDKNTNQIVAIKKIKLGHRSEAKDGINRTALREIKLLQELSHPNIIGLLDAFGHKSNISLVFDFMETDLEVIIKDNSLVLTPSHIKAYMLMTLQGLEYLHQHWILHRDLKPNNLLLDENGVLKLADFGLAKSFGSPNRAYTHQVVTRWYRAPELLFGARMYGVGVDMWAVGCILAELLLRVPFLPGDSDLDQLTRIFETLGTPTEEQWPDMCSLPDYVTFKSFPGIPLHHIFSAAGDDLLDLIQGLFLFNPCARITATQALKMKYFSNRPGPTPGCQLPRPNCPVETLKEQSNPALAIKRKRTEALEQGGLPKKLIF
- Sequence (P51946 whole entry partner): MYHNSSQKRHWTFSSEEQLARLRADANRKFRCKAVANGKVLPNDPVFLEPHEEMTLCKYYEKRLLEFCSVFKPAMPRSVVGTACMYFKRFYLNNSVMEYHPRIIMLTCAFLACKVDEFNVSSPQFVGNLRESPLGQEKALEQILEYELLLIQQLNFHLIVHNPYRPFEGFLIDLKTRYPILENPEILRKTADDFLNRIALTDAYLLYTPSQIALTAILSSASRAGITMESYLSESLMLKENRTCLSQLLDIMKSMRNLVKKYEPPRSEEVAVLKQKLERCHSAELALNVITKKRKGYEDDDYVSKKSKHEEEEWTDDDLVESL
- Sequence (P51948 whole entry partner): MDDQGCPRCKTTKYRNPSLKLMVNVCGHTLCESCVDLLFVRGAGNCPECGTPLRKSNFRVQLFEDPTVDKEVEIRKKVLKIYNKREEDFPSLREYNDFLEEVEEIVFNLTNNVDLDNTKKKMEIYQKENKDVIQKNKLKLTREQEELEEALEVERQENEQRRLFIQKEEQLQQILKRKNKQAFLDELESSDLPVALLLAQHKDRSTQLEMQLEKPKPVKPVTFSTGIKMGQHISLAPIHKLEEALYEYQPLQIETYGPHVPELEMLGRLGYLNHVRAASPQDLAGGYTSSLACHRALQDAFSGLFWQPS
- PROTOCOL_SUMMARY: In vitro CDK7 assay, potency of irreversible covalent inhibitors (kinact/KI)
- SETUP_CONDITIONS: read-out: CDK7 (20 nM enz.) (kinact/ KI, M^−1*s^−1), 20 nM enz.
METRIC_NAME: log10(kinact/KI) (log10 of the value in M⁻¹ s⁻¹)
Answers are given as log10 of kinact/KI in M⁻¹ s⁻¹.

Specify the recorded log10(kinact/KI) for `C=CC(=O)N1CC[C@H](N2CCC(c3cc(C)c4c(c3)Nc3ncnc(N5CCOCC5)c3CO4)CC2)C1` , system: CDK7/cyclinH/MAT1 trimeric complex (Homo sapiens (Human), UniProt P50613).
2.57

Specify the recorded log10(kinact/KI) for `CC#CC(=O)N1CCC(N2CC=C(c3cc(C)c4c(c3)Nc3ncnc(N5CCS(=O)(=O)CC5)c3CO4)CC2)CC1` , system: CDK7/cyclinH/MAT1 trimeric complex (Homo sapiens (Human), UniProt P50613).
2.90

Specify the recorded log10(kinact/KI) for `C=CC(=O)N1CCN(C2CCN(c3cc(C)c4c(c3)Nc3ncnc(N5CCS(=O)(=O)CC5)c3CO4)CC2)CC1` , system: CDK7/cyclinH/MAT1 trimeric complex (Homo sapiens (Human), UniProt P50613).
3.15

Specify the recorded log10(kinact/KI) for `C=CC(=O)N1CC(N2CCC(c3cc4c(cn3)OCc3c(ncnc3N3CCOCC3)N4)CC2)C1` , system: CDK7/cyclinH/MAT1 trimeric complex (Homo sapiens (Human), UniProt P50613).
2.40

Specify the recorded log10(kinact/KI) for `C=CC(=O)N1CC(N2CCC(c3cc(C)c4c(c3)Nc3ncnc(-c5ccnn5C)c3CO4)CC2)C1` , system: CDK7/cyclinH/MAT1 trimeric complex (Homo sapiens (Human), UniProt P50613).
2.12

Specify the recorded log10(kinact/KI) for `C=CC(=O)N1CC(N2CCC(c3cc(Cl)c4c(c3)Nc3ncnc(N5CCOCC5)c3CO4)CC2)C1` , system: CDK7/cyclinH/MAT1 trimeric complex (Homo sapiens (Human), UniProt P50613).
3.16

Specify the recorded log10(kinact/KI) for C=CC(=O)N1CC(N2CCC(c3ccc4c(c3)Nc3ncnc(N5CCOCC5)c3[C@@H](CC)O4)CC2)C1 (single isomer, unassigned) , system: CDK7/cyclinH/MAT1 trimeric complex (Homo sapiens (Human), UniProt P50613).
1.93

* * *

METRIC_NAME: melting point

Give a short answer stating reported melting point for C=CC(=O)N1CC(N2CCC(c3cc(F)c4c(c3)Nc3ncnc(N5CCOCC5)c3[C@@H](C)O4)CC2)C1 (single isomer, unassigned) [compound 46] .
175 °C

Give a short answer stating reported melting point for C=CC(=O)N1CC(N2C3CCC2CC(c2ccc4c(c2)Nc2ncnc(N5CCOCC5)c2CO4)C3)C1 (centres unmarked) [compound 41] .
208 °C

Give a short answer stating reported melting point for C=CC(=O)N1CC(N2CCC(c3cc(F)c4c(c3)Nc3ncnc(-c5cnn(C)c5)c3[C@H](C)O4)CC2)C1 (single isomer, unassigned) [compound 53] .
260 °C

Give a short answer stating reported melting point for C=CC(=O)N1CC(N2CCC(c3ccc4c(c3)Nc3ncnc(N5CCOCC5)c3CO4)CC2C)C1 (centres unmarked) [compound 34] .
213 °C

Give a short answer stating reported melting point for C=CC(=O)N1CC(N2CC=C(c3ccc4c(c3)Nc3ncnc(N5CCOCC5)c3CO4)CC2)C1 [compound 33] .
193 °C

Give a short answer stating reported melting point for C=CC(=O)N1CCC(N2CCC(c3cc(C)c4c(c3)Nc3ncnc(N5CCS(=O)(=O)CC5)c3CO4)CC2)CC1 [compound 88] .
256 °C

Give a short answer stating reported melting point for C=CC(=O)N1CCC(N2CC(c3cc(C)c4c(c3)Nc3ncnc(N5CCOCC5)c3CO4)C2)C1 (centres unmarked) [compound 16] .
151 °C

Give a short answer stating reported melting point for C=CC(=O)N1CC(N2CC(c3cc4c(c(C)n3)OCc3c(ncnc3N3CCS(=O)(=O)CC3)N4)C2)C1 [compound 64] .
> 300 °C

Give a short answer stating reported melting point for C=CC(=O)N1CC(C2CCN(c3ccc4c(c3)Nc3ncnc(N5CCOCC5)c3CO4)CC2)C1 [compound 7] .
234 °C

Give a short answer stating reported melting point for C=CC(=O)N1CCN(C2CN(c3ccc4c(c3)Nc3ncnc(N5CCOCC5)c3CO4)C2)CC1 [compound 4] .
151 °C

Give a short answer stating reported melting point for CC#CC(=O)N1CCN(C2CCN(c3cc(C)c4c(c3)Nc3ncnc(N5CCS(=O)(=O)CC5)c3CO4)CC2)CC1 [compound 137] .
267 °C

Give a short answer stating reported melting point for C=CC(=O)N1CCC(N2CC(c3cc4c(c(C)n3)OCc3c(ncnc3N3CCS(=O)(=O)CC3)N4)C2)CC1 [compound 63] .
190 °C

Give a short answer stating reported melting point for C=CC(=O)N1CC(N2CCC(c3cc(Cl)c4c(c3)Nc3ncnc(N5CCOCC5)c3CO4)CC2)C1 [compound 42] .
> 300 °C

Give a short answer stating reported melting point for C=CC(=O)N1CCC(N2CC(c3cc4c(c(C(F)(F)F)c3)OCc3c(ncnc3-c3cnn(C)c3)N4)C2)CC1 [compound 44] .
178 °C

* * *

Kindly supply the reported melting point values for the records listed here.

Give a short answer stating reported melting point for CC#CC(=O)N1CCC(N2CC(c3cc(C)c4c(c3)Nc3ncnc(N5CCS(=O)(=O)CC5)c3C(C)O4)C2)CC1 (racemic) .
218 °C

Give a short answer stating reported melting point for C=CC(=O)N1CC[C@H](N2CC(c3cc4c(c(C5CC5)c3)O[C@H](C)c3c(ncnc3N3CCS(=O)(=O)CC3)N4)C2)C1 (single isomer, unassigned) .
193 °C

Give a short answer stating reported melting point for C=CC(=O)N1CCC(N2CC(c3cc(C)c4c(c3)Nc3ncnc(N5CCS(=O)(=O)CC5)c3[C@@H](C)O4)C2)CC1 (single isomer, unassigned) .
227 °C

Give a short answer stating reported melting point for `C=CC(=O)N1CCC(N2CCC(c3cc4c(c(C)n3)OCc3c(ncnc3N3CCS(=O)(=O)CC3)N4)CC2)CC1` .
259 °C

Give a short answer stating reported melting point for C=CC(=O)N1CC(N2CCC(c3cc(C)c4c(c3)Nc3ncnc(N5CCS(=O)(=O)CC5)c3[C@@H](C)O4)CC2)C1 (single isomer, unassigned) .
> 300 °C

Give a short answer stating reported melting point for `C=CC(=O)N1CC(N2CCC(c3cc(Cl)c4c(c3)Nc3ncnc(N5CCS(=O)(=O)CC5)c3CO4)CC2)C1` .
296 °C

* * *

Kindly supply the reported Ki values for the records listed here.
- TARGET_DESC: CDK7/cyclinH/MAT1 trimeric complex (Homo sapiens (Human), UniProt P50613)
- PROTOCOL_SUMMARY: In vitro CDK7 assay, potency of irreversible covalent inhibitors (kinact/KI)
- SETUP_CONDITIONS: CDK7 (20 nM enz.) (KI, μM), 20 nM enz.

Give a short answer stating reported Ki for C=CC(=O)N1CCC(N2CC(c3cc(C)c4c(c3)Nc3ncnc(N5CCOCC5)c3CO4)C2)C1 (stereo not drawn) [compound 16] .
0.192 µM

Give a short answer stating reported Ki for C=CC(=O)N1CCC(N2CC(c3cc(C#N)c4c(c3)Nc3ncnc(-c5cnn(C)c5)c3CO4)C2)CC1 [compound 73] .
1.24 µM

Give a short answer stating reported Ki for C=CC(=O)N1CC[C@@H](N2CC(c3cc4c(c(C5CC5)c3)OCc3c(ncnc3N3CCS(=O)(=O)CC3)N4)C2)C1 (single isomer, unassigned) [compound 93] .
0.277 µM

* * *

- Tested on: RNA polymerase II Serine 5 phosphorylation in A549 cells overexpressing CDK7 mutant (C312S)
- PROTOCOL_SUMMARY: Imaging-based cellular RNA PolII Ser5 phosphorylation assay in A549 cells overexpressing CDK7-mutant (C312S)
- Assay type: cell-based, human
- SETUP_CONDITIONS: Homo sapiens, A549, A549 cells overexpressing CDK7 mutant (C312S); read-out: CDK7_ A549 mutant hCDK7(pIC50) (converted)
- Experimental: Data were calculated and analyzed in Phaedra. From this an IC50 value can be obtained. In parallel this assay was performed in A549 cells overexpressing CDK7-mutant (C312S) to evaluate the effect of the covalent bond on potency and to screen for potential off-target effects. Mutation of Cysteine to Serine (C312S), a less nucleophilic amino acid, prevents CDK7 inhibitors from covalently binding to CDK7 and from inhibiting CDK7 activity in an irreversible manner. […]
METRIC_NAME: IC50

Give a short answer stating reported IC50 for `C=CC(=O)N1CC(N2CCC(c3cc(C#N)c4c(c3)Nc3ncnc(N5CCOCC5)c3CO4)CC2)C1` .
> 10 µM

Give a short answer stating reported IC50 for `C=CC(=O)N1CCC(N2CCC(c3cc(C)c4c(c3)Nc3ncnc(N5CCS(=O)(=O)CC5)c3CO4)CC2)CC1` .
8.13 µM

Give a short answer stating reported IC50 for CCC#CC(=O)N1CC[C@H](N2CC(c3cc(C)c4c(c3)Nc3ncnc(N5CCS(=O)(=O)CC5)c3[C@@H](C)O4)C2)C1 (single isomer, unassigned) .
> 10 µM

Data credit: patent US20240109912A1
